- ASSAY DETAILS: Selectivity index, ratio of CC50 for human A549 cells to IC50 for group 2 influenza A H7N1 pseudotyped virus infected in A549 cells
- Format: toxicity, cell-based
- APPLIED CONDITIONS: read-out: Ratio CC50/IC50
Parameter selectivity ratio: see the listing below.

Example entries and their recorded answers appear below.
# SUBSTANCE SMILES, selectivity ratio
data = [
    ("CCCCOc1ccc(-c2nc3ncccn3c2NCc2nc[nH]c2C)cc1", 1),
    ("Nc1nc2ncccn2c1-c1ccc(Br)cc1", "> 1"),
]

(Q) Query (compound): COCCCCOc1ccc(-c2nc3ncccn3c2NC2CCCCC2)cc1 ; field requested: selectivity ratio
(A) 400

(Q) Query (compound): COc1ccccc1-c1nc2ncccn2c1N(C(C)=O)C1CCCCC1 ; field requested: selectivity ratio
(A) > 1

(Q) Query (compound): CCCCOc1ccc(-c2c(N)nc3ncccn23)cc1 ; field requested: selectivity ratio
(A) > 1.7
